- system_tested: a4(V824A)b7 (human) (UniProt P13612)
- Sequence (P13612 34-1032 V824A, chain 1 of 2): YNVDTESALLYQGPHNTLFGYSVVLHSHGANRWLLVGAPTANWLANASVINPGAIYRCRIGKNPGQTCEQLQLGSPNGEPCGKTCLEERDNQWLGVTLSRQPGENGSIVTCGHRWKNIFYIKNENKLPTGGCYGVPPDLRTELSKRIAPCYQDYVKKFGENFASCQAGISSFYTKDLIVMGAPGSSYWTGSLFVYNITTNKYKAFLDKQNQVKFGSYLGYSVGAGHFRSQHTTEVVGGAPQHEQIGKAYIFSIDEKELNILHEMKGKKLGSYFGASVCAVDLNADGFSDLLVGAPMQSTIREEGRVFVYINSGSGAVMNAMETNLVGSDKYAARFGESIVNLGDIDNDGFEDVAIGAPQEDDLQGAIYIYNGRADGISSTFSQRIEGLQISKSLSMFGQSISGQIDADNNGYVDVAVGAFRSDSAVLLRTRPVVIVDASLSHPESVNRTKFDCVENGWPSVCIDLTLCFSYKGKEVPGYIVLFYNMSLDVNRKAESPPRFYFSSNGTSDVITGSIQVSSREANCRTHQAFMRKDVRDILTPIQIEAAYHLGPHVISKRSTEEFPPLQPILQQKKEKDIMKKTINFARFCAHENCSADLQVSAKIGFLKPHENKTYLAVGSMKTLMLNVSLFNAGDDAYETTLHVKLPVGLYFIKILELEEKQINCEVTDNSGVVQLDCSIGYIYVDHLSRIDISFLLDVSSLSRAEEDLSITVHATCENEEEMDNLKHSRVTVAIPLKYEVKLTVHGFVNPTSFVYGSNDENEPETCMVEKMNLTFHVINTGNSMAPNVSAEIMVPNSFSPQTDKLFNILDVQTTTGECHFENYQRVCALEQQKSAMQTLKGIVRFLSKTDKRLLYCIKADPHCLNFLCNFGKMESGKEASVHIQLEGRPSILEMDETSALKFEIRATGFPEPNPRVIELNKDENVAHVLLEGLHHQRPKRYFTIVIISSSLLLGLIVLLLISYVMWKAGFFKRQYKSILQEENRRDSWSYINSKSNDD
- Sequence (P26010 20-798, chain 2 of 2, further chain): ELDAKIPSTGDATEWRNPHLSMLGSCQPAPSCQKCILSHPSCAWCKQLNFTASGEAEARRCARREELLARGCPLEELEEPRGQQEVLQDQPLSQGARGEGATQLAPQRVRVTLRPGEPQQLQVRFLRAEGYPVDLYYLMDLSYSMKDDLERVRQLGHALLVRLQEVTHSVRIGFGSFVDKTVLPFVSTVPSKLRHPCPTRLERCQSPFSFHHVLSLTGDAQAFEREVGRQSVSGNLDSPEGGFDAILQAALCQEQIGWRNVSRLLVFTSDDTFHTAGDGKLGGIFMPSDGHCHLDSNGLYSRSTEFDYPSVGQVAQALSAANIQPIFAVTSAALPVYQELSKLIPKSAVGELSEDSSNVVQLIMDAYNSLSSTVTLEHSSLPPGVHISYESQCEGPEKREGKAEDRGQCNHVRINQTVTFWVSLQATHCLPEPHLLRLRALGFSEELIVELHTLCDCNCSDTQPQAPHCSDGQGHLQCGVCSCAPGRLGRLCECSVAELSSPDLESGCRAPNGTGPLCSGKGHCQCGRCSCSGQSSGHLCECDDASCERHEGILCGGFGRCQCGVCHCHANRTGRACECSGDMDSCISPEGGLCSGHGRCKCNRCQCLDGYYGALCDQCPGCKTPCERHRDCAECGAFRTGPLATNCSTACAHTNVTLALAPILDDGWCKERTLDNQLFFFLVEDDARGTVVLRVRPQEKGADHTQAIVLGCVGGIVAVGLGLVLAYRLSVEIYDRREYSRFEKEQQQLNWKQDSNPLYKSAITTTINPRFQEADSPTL
- experiment: FACS on transfected 293 cells, 1 microG/ml, PE anti-human IgG
Recorded fluorescence staining intensity (geometric mean) by entry
Give the value as a plain number.

27G8 (antibody, V domains shown, Fully human monoclonal from XenoMouse (human IgG2 or IgG4); lambda light chain; PE-conjugated in the cynomolgus study; also called 27G8L; 27G8H) VH: EVQLVESGGGLVQPGGSLRLSCAASGFTFSSYWMSWVRQASGKGLEWVANIKQDGSEKYYVDSVKGRFTISRDNAKNSLYLQMNSLRAEDTAVYYCAREGGYDWNYADYYGMDVWGQGTTVTVSS VL: QSVLTQPPSVSEAPRQRVTISCSGSNSNIGNNPVNWYQLFPGRAPKLLIYHDDLLPSGVSDRFSGSRSGTSASLAISGLQSEDETDYYCTAWDDSLNGWVFGGGTKLTVL	88

Turning to the following binder.
q: Field request: fluorescence staining intensity (geometric mean) | item: 17C8 (antibody, V domains shown, Fully human monoclonal from XenoMouse (human IgG2 or IgG4); kappa light chain; also called 17C8K; 17C8H) VH: QVQLVESGGGLVKPGGSLRLSCAASGFTFSDYYMSWIRQAPGKGLEWLSYISNSGSAMYYADSVKGRFTISRDNARNSLYLQMNSLRAEDTAVYYCAREYSSGWFFFESWGQGTLVTVSS VL: EIVMTQSPATLSVSPGERATLSCRASQSVSSNLVWYQQKPGQAPRLLIYGASTRATGIPARFSGSGSGTDFTLTISSLQSEDFAVYYCQQYDDWPPLTFGGGTTVEIK
a: 74
